studyTarget: HLA-A*02:01 (Homo sapiens, UniProt P04439, D140Y/D185E/D98H/E176V/E277Q/G131W/G231S/I119V/I121R/I166T/I218V/L300P/L318F/N151K/N90K/P208A/P217A/Q86G/Q94H/R138H/R169H/T345S)
assayNotes: MHC binding assay (UV-ligand exchange, beta2m ELISA)
experimentalContext: binding to HLA-A*02:01, β2m ELISA
valueKind: Peptide exchange (MHC class I binding score, peptide exchange yield)

Check out these entries, answers already filled in.
>>> result("266 (FLLDKPQDL; listed as Homo sapiens) [compound 266]")
"++ (≥20% = ++)"
>>> result("100 (ALQSFEFRV; listed as Homo sapiens) [compound 100]")
"+++ (≥50 = +++)"
>>> result("47 (GLNGFNVLL; listed as Homo sapiens) [compound 47]")
"+++ (≥50 = +++)"
>>> result("219 (GVVPTIQKV; listed as Homo sapiens) [compound 219]")
"++ (≥20% = ++)"

Let's switch to this substance now.
Which Peptide exchange (MHC class I binding score, peptide exchange yield) value belongs to 212 (MTLSEIHAV; listed as Homo sapiens) [compound 212] ?
++ (≥20% = ++)
